System: 786-0 renal
test_protocol: NCI-60 one-dose screen, 48 h (100 = growth as untreated, 0 = no growth, -100 = all killed)
condition_context: 10 µM unless noted
This is part of a sample that, as a whole, favours compounds with a hit. Of some 83,000 tested, about 20% had one in any assay. The source made the active and inactive calls. Rule for the calls: active = growth percent below 10; inactive = the rest.
measurement_kind: growth

Consider the worked cases shown below.
For the compound NCCCNc1nc2ccccc2c2c(=O)c3cccc(F)c3sc12 , what growth is on record?
52.6% (inactive)

Suppose we examine the compound COc1ccc(/C=C(/C#N)n2nnc3cccc(F)c32)cc1 ; what growth value has been reported?
10.6% (inactive)

Would you mind listing growth for each of the following compounds?
1. COc1cccc2c(=O)c3c(sc12)c(NCCCN)nc1ccccc13
2. COc1ccc(C2CC(c3ccc(Nc4ccnc5cc(Cl)ccc45)cc3)=NN2C=O)cc1 (stereo unspecified)
3. c1ccc2c(-c3nc(-c4c[nH]c5ccncc45)cs3)c[nH]c2c1

1. 68.2% (inactive)
2. 70.5% (inactive)
3. 64.9% (inactive)

For every item in the list below, what is its measured growth?
1. COc1ccc(S(=O)(=O)n2c3ccccc3n3ncc(-c4nnc(C)o4)c23)cc1
2. CC/C=C\C[C@@H]1C/C=C2/C(=O)C=C[C@H]2C/C=C\CCCC(=O)O1
3. CC(C)n1cnc2c(Nc3cccc(Cl)c3)nc(N[C@H]3CCCC[C@@H]3N)nc21
4. Cc1ccc(C2CC(c3ccc(Nc4ccnc5cc(Cl)ccc45)cc3)=NN2C=O)cc1 (stereo unspecified)
5. c1cc(NCCc2ccncc2)nc(-n2cnc3ccccc32)c1
6. C=C(C)[C@@H]1CC[C@]2(N=C=O)CC[C@]3(C)[C@H](CC[C@@H]4[C@@]5(C)Cc6c([nH]c7ccccc67)C(C)(C)[C@@H]5CC[C@]43C)[C@@H]12

1. 42.7% (inactive)
2. -88.4% (active)
3. 45.7% (inactive)
4. 64% (inactive)
5. 92% (inactive)
6. 66.7% (inactive)

Batch of 6 compounds: report growth for each.
1. COc1ccc(C(=O)N=Nc2c(O)n(C)c3ccccc23)cc1
2. O=C(N/N=C/c1ccc(Cl)cc1)c1ccc(C(F)(F)F)nc1Nc1cccc(C(F)(F)F)c1
3. Cc1ccc(C(=O)N/N=C/c2cccc([N+](=O)[O-])c2)cn1
4. Cc1nc(/N=C(\N)NC(=O)Nc2cccc(Cl)c2)sc1C
5. CN1C(=O)CNC(=O)[C@H](NC(=O)c2nc3ccccc3cc2O)CSSC[C@H]1C(=O)NCCCc1nc2ccccc2cc1O
6. O=C1NC(=O)C(c2ccccc2)(c2ccccc2)N1Cc1cn(-c2c3ccccc3nc3ccccc23)nn1

1: 106% (inactive); 2: 23.1% (inactive); 3: 31.4% (inactive); 4: 97.8% (inactive); 5: 113% (inactive); 6: 87.3% (inactive)

Need growth for each of these compounds.
1. CCN(CC)Cc1cc(Nc2c3ccc(Cl)cc3nc3ccc(OC)cc23)ccc1O
2. COc1cc(C(=O)c2cnc(-c3c[nH]c4cccc(C)c34)[nH]2)cc(OC)c1OC
3. CNC(=O)c1cc(-n2ccc3cc(NC(=O)c4ccc(N5CCOCC5)c(C(F)(F)F)c4)ccc32)ccn1
4. CC/C=C\C[C@@H](O)C/C=C1/C(=O)C=C[C@H]1C/C=C\CCCC(=O)OC
5. COc1cc(C(=O)N/N=C/c2cc3cc(OCc4ccccc4)ccc3nc2OC)cc(OC)c1OC
6. COC(=O)[C@H](C)NC(=O)NC(=O)NC(=O)CI

1. 47.3% (inactive)
2. 10.4% (inactive)
3. 47.8% (inactive)
4. 30.5% (inactive)
5. 85.5% (inactive)
6. 63.9% (inactive)
